Please respond with reported IC50 for every item in the list.
- assay procedure: Phototoxicity against human MeWo cells assessed as reduction in cell viability incubated for 6 hrs followed by irradiation for 30 mins with light at wavelength of 643 nm and measured after 36 to 48 hrs by MTT assay
- Format: functional, cell-based
- condition description: light or radiation study
Quick reminder: number only, in nM, skip the unit.

Q) Name the reported IC50 value associated with the molecule CCCCCCCCCCCCCCCCCC(=O)Nc1ccc(-c2c3nc(c(-c4ccc[n+](C)c4)c4ccc([nH]4)c(-c4ccc[n+](C)c4)c4nc(c(-c5ccc[n+](C)c5)c5ccc2[nH]5)C=C4)C=C3)cc1.[Cl-].[Cl-].[Cl-]
A) 350

Q) Name the reported IC50 value associated with the molecule CCCCCCCCCCCCCC(=O)Nc1ccc(-c2c3nc(c(-c4ccc[n+](C)c4)c4ccc([nH]4)c(-c4ccc[n+](C)c4)c4nc(c(-c5ccc[n+](C)c5)c5ccc2[nH]5)C=C4)C=C3)cc1.[Cl-].[Cl-].[Cl-]
A) 660

Q) Name the reported IC50 value associated with the molecule CCCCCCCCCCCC(=O)Nc1ccc(-c2c3nc(c(-c4ccc[n+](C)c4)c4ccc([nH]4)c(-c4ccc[n+](C)c4)c4nc(c(-c5ccc[n+](C)c5)c5ccc2[nH]5)C=C4)C=C3)cc1
A) 2360

Q) Name the reported IC50 value associated with the molecule CCCCCCCC(=O)Nc1ccc(-c2c3nc(c(-c4ccc[n+](C)c4)c4ccc([nH]4)c(-c4ccc[n+](C)c4)c4nc(c(-c5ccc[n+](C)c5)c5ccc2[nH]5)C=C4)C=C3)cc1.[Cl-].[Cl-].[Cl-]
A) 8310

---

- assay procedure: Cytotoxicity against human HDF cells assessed as reduction in cell viability incubated for 6 hrs followed by irradiation for 30 mins with light at wavelength of 643 nm and measured after 36 to 48 hrs by MTT assay
- Type: toxicity, cell-based
measured metric: pIC50
Value format note: pIC50 is -log10 of concentration (mol/L); just state the number.

Q) Name the reported pIC50 value associated with the compound CCCCCCCCCCCC(=O)Nc1ccc(-c2c3nc(c(-c4ccc[n+](C)c4)c4ccc([nH]4)c(-c4ccc[n+](C)c4)c4nc(c(-c5ccc[n+](C)c5)c5ccc2[nH]5)C=C4)C=C3)cc1
A) 5.33

Q) Name the reported pIC50 value associated with the compound CCCCCCCC(=O)Nc1ccc(-c2c3nc(c(-c4ccc[n+](C)c4)c4ccc([nH]4)c(-c4ccc[n+](C)c4)c4nc(c(-c5ccc[n+](C)c5)c5ccc2[nH]5)C=C4)C=C3)cc1.[Cl-].[Cl-].[Cl-]
A) 4.59

Q) Name the reported pIC50 value associated with the compound CCCCCCCCCCCCCCCC(=O)Nc1ccc(-c2c3nc(c(-c4ccc[n+](C)c4)c4ccc([nH]4)c(-c4ccc[n+](C)c4)c4nc(c(-c5ccc[n+](C)c5)c5ccc2[nH]5)C=C4)C=C3)cc1.[Cl-].[Cl-].[Cl-]
A) 6.38

Q) Name the reported pIC50 value associated with the compound CCCCCCCCCCCCCC(=O)Nc1ccc(-c2c3nc(c(-c4ccc[n+](C)c4)c4ccc([nH]4)c(-c4ccc[n+](C)c4)c4nc(c(-c5ccc[n+](C)c5)c5ccc2[nH]5)C=C4)C=C3)cc1.[Cl-].[Cl-].[Cl-]
A) 6.11

Q) Name the reported pIC50 value associated with the compound CCCCCCCCCC(=O)Nc1ccc(-c2c3nc(c(-c4ccc[n+](C)c4)c4ccc([nH]4)c(-c4ccc[n+](C)c4)c4nc(c(-c5ccc[n+](C)c5)c5ccc2[nH]5)C=C4)C=C3)cc1.[Cl-].[Cl-].[Cl-]
A) 5.15

Q) Name the reported pIC50 value associated with the compound CCCCCCCCCCCCCCCCCC(=O)Nc1ccc(-c2c3nc(c(-c4ccc[n+](C)c4)c4ccc([nH]4)c(-c4ccc[n+](C)c4)c4nc(c(-c5ccc[n+](C)c5)c5ccc2[nH]5)C=C4)C=C3)cc1.[Cl-].[Cl-].[Cl-]
A) 6.49

---

- assay procedure: Cytotoxicity against human HDF cells assessed as reduction in cell proliferation at 1 uM incubated for 6 hrs followed by irradiation for 30 mins with light at wavelength of 606 nm and measured after 36 to 48 hrs by MTT assay
- Assay type: toxicity, cell-based
- condition description: time 2550-3270 min
measured metric: inhibition at 1 µM (%)
Quick reminder: number only, in %, skip the unit.

Q) Name the reported inhibition at 1 µM value associated with the compound CCCCCCCCCCCCCC(=O)Nc1ccc(-c2c3nc(c(-c4ccc[n+](C)c4)c4ccc([nH]4)c(-c4ccc[n+](C)c4)c4nc(c(-c5ccc[n+](C)c5)c5ccc2[nH]5)C=C4)C=C3)cc1.[Cl-].[Cl-].[Cl-]
A) 10

---

- assay procedure: Phototoxicity against human MeWo cells assessed as reduction in cell viability incubated for 6 hrs followed by irradiation for 30 mins with light at wavelength of 643 nm and measured after 36 to 48 hrs by MTT assay
- Format: functional, cell-based
- condition description: light or radiation study
measured metric: IC50 (µM)
Quick reminder: number only, in µM, skip the unit.

Q) Name the reported IC50 value associated with the compound CCCCCCCCCCCCCCCC(=O)Nc1ccc(-c2c3nc(c(-c4ccc[n+](C)c4)c4ccc([nH]4)c(-c4ccc[n+](C)c4)c4nc(c(-c5ccc[n+](C)c5)c5ccc2[nH]5)C=C4)C=C3)cc1.[Cl-].[Cl-].[Cl-]
A) 0.56

Q) Name the reported IC50 value associated with the compound CCCCCCCCCC(=O)Nc1ccc(-c2c3nc(c(-c4ccc[n+](C)c4)c4ccc([nH]4)c(-c4ccc[n+](C)c4)c4nc(c(-c5ccc[n+](C)c5)c5ccc2[nH]5)C=C4)C=C3)cc1.[Cl-].[Cl-].[Cl-]
A) 7.7

---

- assay procedure: Cytotoxicity against human HDF cells assessed as reduction in cell viability incubated for 6 hrs followed by irradiation for 30 mins with light at wavelength of 606 nm and measured after 36 to 48 hrs by MTT assay
- Assay type: toxicity, cell-based
Please respond with reported IC50 for every item in the list.
Quick reminder: number only, in nM, skip the unit.

Q) Name the reported IC50 value associated with the compound CCCCCCCCCC(=O)Nc1ccc(-c2c3nc(c(-c4ccc[n+](C)c4)c4ccc([nH]4)c(-c4ccc[n+](C)c4)c4nc(c(-c5ccc[n+](C)c5)c5ccc2[nH]5)C=C4)C=C3)cc1.[Cl-].[Cl-].[Cl-]
A) 32400

Q) Name the reported IC50 value associated with the compound CCCCCCCCCCCCCCCC(=O)Nc1ccc(-c2c3nc(c(-c4ccc[n+](C)c4)c4ccc([nH]4)c(-c4ccc[n+](C)c4)c4nc(c(-c5ccc[n+](C)c5)c5ccc2[nH]5)C=C4)C=C3)cc1.[Cl-].[Cl-].[Cl-]
A) 1480

Q) Name the reported IC50 value associated with the compound CCCCCCCCCCCCCCCCCC(=O)Nc1ccc(-c2c3nc(c(-c4ccc[n+](C)c4)c4ccc([nH]4)c(-c4ccc[n+](C)c4)c4nc(c(-c5ccc[n+](C)c5)c5ccc2[nH]5)C=C4)C=C3)cc1.[Cl-].[Cl-].[Cl-]
A) 670

---

- assay procedure: Cytotoxicity against human HDF cells assessed as cell proliferation rate at 1 uM incubated for 6 hrs followed by irradiation for 30 mins with light at wavelength of 643 nm and measured after 36 to 48 hrs by MTT assay
- Type: toxicity, cell-based
- condition description: time 2550-3270 min, read-out: Activity
measured metric: viability at 1 µM

Q) Name the reported viability at 1 µM value associated with the compound CCCCCCCCCCCCCC(=O)Nc1ccc(-c2c3nc(c(-c4ccc[n+](C)c4)c4ccc([nH]4)c(-c4ccc[n+](C)c4)c4nc(c(-c5ccc[n+](C)c5)c5ccc2[nH]5)C=C4)C=C3)cc1.[Cl-].[Cl-].[Cl-]
A) ~30%

---

- assay procedure: Cytotoxicity against human HDF cells assessed as cell proliferation rate at 1 uM incubated for 6 hrs followed by irradiation for 30 mins with light at wavelength of 606 nm and measured after 36 to 48 hrs by MTT assay
- Format: toxicity, cell-based
- condition description: time 2550-3270 min, read-out: Activity
measured metric: viability at 1 µM

Q) Name the reported viability at 1 µM value associated with the compound CCCCCCCCCCCCCC(=O)Nc1ccc(-c2c3nc(c(-c4ccc[n+](C)c4)c4ccc([nH]4)c(-c4ccc[n+](C)c4)c4nc(c(-c5ccc[n+](C)c5)c5ccc2[nH]5)C=C4)C=C3)cc1.[Cl-].[Cl-].[Cl-]
A) > 80%
